# Target: JNK3 (Homo sapiens)
# Sequence (P53779 whole entry, species assumed): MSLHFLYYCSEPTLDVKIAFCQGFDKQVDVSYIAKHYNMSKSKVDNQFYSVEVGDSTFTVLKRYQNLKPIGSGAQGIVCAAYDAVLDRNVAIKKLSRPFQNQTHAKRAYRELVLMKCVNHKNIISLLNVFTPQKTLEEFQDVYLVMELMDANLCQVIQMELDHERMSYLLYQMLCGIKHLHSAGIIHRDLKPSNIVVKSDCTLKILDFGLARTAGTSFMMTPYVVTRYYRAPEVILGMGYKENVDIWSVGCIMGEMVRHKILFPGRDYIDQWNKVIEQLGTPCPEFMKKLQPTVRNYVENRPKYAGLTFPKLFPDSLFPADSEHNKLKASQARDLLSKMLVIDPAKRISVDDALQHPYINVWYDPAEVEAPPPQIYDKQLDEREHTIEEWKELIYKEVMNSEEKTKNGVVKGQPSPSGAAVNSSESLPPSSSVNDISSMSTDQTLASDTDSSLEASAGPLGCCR
# Protocol details: DELFIA kinase assay, JNK3
# Format: biochemical
# Experimental setup: DELFIA, biotinylated GST-ATF2 substrate, final ATP 2 uM
So I've got a bunch of compounds here, and I need their IC50 values.
Answers are plain numbers, in nM.

Solved cases below.
{"columns": ["Structure as smiles", "IC50 [nM]"],
 "data": [
  ["CC(C)NC(=O)c1cccc(C(=O)NCc2cnn(-c3ccc(C#N)cc3)c2)n1", 16],
  ["CC(C)NC(=O)c1cccc(C(=O)NCc2cnn(-c3cccc(C(F)(F)F)c3)c2)n1", 9],
  ["CC(C)NC(=O)c1cccc(C(=O)NCc2cnn(-c3ccc4ncccc4c3)c2)n1", 9]
]}

The record that follows has no IC50 shown yet.
For record CC(C)NC(=O)c1cccc(C(=O)NCc2cnn(-c3ccc(S(=O)(=O)N(C)C)cc3)c2)n1 the listed IC50 is 9

----------
So I've got a bunch of compounds here, and I need their pIC50 values.
# Target: JNK1 (Homo sapiens, UniProt P45983)
# Sequence (P45983 whole entry, species assumed): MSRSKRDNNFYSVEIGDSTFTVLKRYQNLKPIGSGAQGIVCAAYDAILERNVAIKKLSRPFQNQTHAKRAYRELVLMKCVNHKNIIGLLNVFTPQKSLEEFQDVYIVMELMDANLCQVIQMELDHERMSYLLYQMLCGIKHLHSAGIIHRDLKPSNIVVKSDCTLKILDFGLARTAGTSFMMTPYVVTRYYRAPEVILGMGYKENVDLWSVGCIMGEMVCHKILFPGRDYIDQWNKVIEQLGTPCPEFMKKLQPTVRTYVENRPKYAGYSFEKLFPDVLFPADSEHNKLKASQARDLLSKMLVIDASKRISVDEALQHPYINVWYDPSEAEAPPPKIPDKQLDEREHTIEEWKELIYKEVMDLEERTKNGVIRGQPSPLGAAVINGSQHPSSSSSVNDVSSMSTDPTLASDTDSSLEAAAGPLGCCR
# Protocol details: DELFIA kinase assay, JNK1
# Format: biochemical
# Experimental setup: DELFIA, biotinylated GST-ATF2 substrate, 10 minute pre-incubation, final ATP 7 uM
pIC50: −log10 of the molar value.

Solved cases below.
{"columns": ["Compound", "pIC50"],
 "data": [
  ["CCOC(=O)N1CCC(NC(=O)c2cccc(Nc3ccc4ncccc4c3)n2)CC1 [Compound 389]", "< 6.00"],
  ["CC(C)NC(=O)c1cccc(C(=O)NCc2cnn(-c3ccc(F)c(C(F)(F)F)c3)c2)n1 [Compound 150]", "7.01 to 8.40"],
  ["CS(=O)(=O)c1ccc(-n2cc(CNC(=O)c3cccc(C(=O)NC4CCCCC4)n3)cn2)cc1 [Compound 77]", "7.01 to 8.40"],
  ["CC[C@@H](C)NC(=O)c1cccc(C(=O)NCc2ccc3nc(N)sc3c2)n1 [Compound 8]", "7.01 to 8.40"],
  ["CC(C)NC(=O)c1cccc(C(=O)NCc2cnn(-c3cccnc3)c2)n1 [Compound 141]", "7.01 to 8.40"],
  ["CN1CCC(NC(=O)c2cccc(C(=O)NCc3ccc4nc(N)sc4c3)n2)CC1 [Compound 29]", "< 6.00"],
  ["CCOC(=O)N1CCC(NC(=O)c2cccc(C(=O)NCc3ccc4c(c3)OCO4)c2)CC1 [Compound 372]", "< 6.00"],
  ["CC(C)NC(=O)c1cccc(C(=O)NCc2nc3ccccc3s2)n1 [Compound 85]", "7.01 to 8.40"]
]}

Please report pIC50 for every entry that follows.
1. CC(C)NC(=O)c1cccc(C(=O)NCc2ccc3c(c2)OCO3)n1 [Compound 89]
2. CC(C)NC(=O)c1cccc(C(=O)NCc2ccn(-c3ccc(S(C)(=O)=O)cc3)n2)n1 [Compound 309]
3. COC(=O)c1cccc(C2CCN(C(=O)c3cccc(C(=O)NCc4ccc5nc(N)sc5c4)n3)CC2O)c1 (stereo not drawn) [Compound 32]
4. CC(C)NC(=O)c1cccc(C(=O)NCc2ccc(-c3ccc(C#N)cc3)cc2)n1 [Compound 195]
5. CC(C)NC(=O)c1cccc(C(=O)NCc2cnn(-c3cnc4nccn4c3)c2)n1 [Compound 213]
6. CC(C)NC(=O)c1cccc(C(=O)NCc2ccc(-c3cccc(S(C)(=O)=O)c3)nc2)n1 [Compound 180]
7. COC(=O)[C@H](C)NC(=O)c1cccc(C(=O)NCc2ccc3nc(N)sc3c2)n1 [Compound 75]

Reply:
["6.02 to 6.99", "6.02 to 6.99", "< 6.00", "6.02 to 6.99", "6.02 to 6.99", "6.02 to 6.99", "6.02 to 6.99"]

Please report pIC50 for every entry that follows.
1. CS(=O)(=O)c1ccc(-n2cc(CNC(=O)c3cccc(-n4cccn4)n3)cn2)cc1 [Compound 293]
2. CC(C)NC(=O)c1cccc(C(=O)NCc2ccc(-c3ccc(Cl)cc3)nc2)n1 [Compound 182]

Reply:
6.02 to 6.99
6.02 to 6.99

Please report pIC50 for every entry that follows.
1. CC(C)NC(=O)c1cccc(C(=O)NCc2cccc(-c3cccc(C#N)c3)c2)n1 [Compound 189]
2. CCOC(=O)N1CCC(NC(=O)c2cccc(C(=O)NCc3ccc(S(C)(=O)=O)cc3)n2)CC1 [Compound 43]

Reply:
7.01 to 8.40
6.02 to 6.99

Please report pIC50 for every entry that follows.
1. CCOC(=O)N1CCC(NC(=O)c2cccc(C(=O)NCCc3ccccc3)n2)CC1 [Compound 45]
2. CC(C)NC(=O)c1cccc(C(=O)NCc2cccc(-c3cccc(S(C)(=O)=O)c3)c2)n1 [Compound 191]
3. CCNC(=O)c1cccc(C(=O)NCc2ccc3nc(N)sc3c2)n1 [Compound 14]
4. CNc1nc2ccc(CNC(=O)c3cccc(C(=O)NC(C)C)n3)cc2s1 [Compound 200]
5. CC(C)(C)c1nnc(-c2cccc(C(=O)NCc3cnn(-c4ccc(S(C)(=O)=O)cc4)c3)n2)o1 [Compound 302]
6. CC(C)NC(=O)c1cccc(C(=O)NCc2ccc(-c3ccc4ncccc4c3)nc2)n1 [Compound 186]
7. COc1ccc(-c2cccc(C(=O)NCc3ccc(S(C)(=O)=O)cc3)n2)c(F)c1 [Compound 331]

Reply:
1: < 6.00; 2: 7.01 to 8.40; 3: < 6.00; 4: 7.01 to 8.40; 5: 6.02 to 6.99; 6: 6.02 to 6.99; 7: 6.02 to 6.99

Please report pIC50 for every entry that follows.
1. Cc1cccc(-c2ccc(CNC(=O)c3cccc(C(=O)NC(C)C)n3)cn2)c1 [Compound 174]
2. CC(C)NC(=O)c1cccc(C(=O)NCc2cccc(Cl)c2)n1 [Compound 96]
3. CS(=O)(=O)c1ccc(CNC(=O)c2cccc(C(=O)NC3CCN(c4ccc5ccccc5n4)CC3)n2)cc1 [Compound 276]

Reply:
1: 6.02 to 6.99; 2: 6.02 to 6.99; 3: < 6.00

Please report pIC50 for every entry that follows.
1. CC(=O)NCCNC(=O)c1cccc(C(=O)NCc2ccc3nc(N)sc3c2)n1 [Compound 16]
2. CS(=O)(=O)c1ccc(CNC(=O)c2cccc(-n3cc(-c4ccccn4)cn3)n2)cc1 [Compound 334]
3. CC(C)NC(=O)c1cccc(C(=O)NCc2cnn(-c3ccc(F)c(Cl)c3)c2)n1 [Compound 131]
4. CC(C)NC(=O)c1cccc(C(=O)NCc2ccc3nc(NC(=O)N(C)C)sc3c2)n1 [Compound 207]

Reply:
["< 6.00", "6.02 to 6.99", "7.01 to 8.40", "7.01 to 8.40"]
